- Tested on: Myotonic Dystrophy 1 affected patient fibroblasts (Coriell GM04602; 1600 CTG repeats)
- experiment: DM1 foci reduction assay (CAG10-Cy3 FISH, average foci per nucleus)
- Type: cell-based
- assaySetup: Homo sapiens, Fibroblast, 48 h, read-out: Foci Reduction in Fibroblast EC50, 48 h (nM)
attributeMeasured: EC50

Problem: Bench note: what EC50 did `CCN(CC)CCCC[C@H](NC(=O)[C@H](CC(C)C)NC(=O)[C@H](C)NC(=O)[C@H](Cc1ccccc1)NC(=O)c1ccc(C(C)(C)C)cc1)C(=O)N[C@@H](CO)C(=O)NCCOCCOCCOCCOCCOCCNC(=O)c1nc(NC(=O)c2cc(NC(=O)CCNC(=O)c3nc(NC(=O)CCCNC(=O)c4nc(NC(=O)c5nc(CC(=O)CCNC(=O)c6cc(NC(=O)c7nccn7C)cn6C)cn5C)cn4C)cn3C)cn2C)cn1C` show?
Solution: < 100 nM

Problem: Bench note: what EC50 did `CCN(CC)CCCC[C@H](NC(=O)[C@H](CC(C)C)NC(=O)[C@H](C)NC(=O)[C@H](Cc1ccccc1)NC(=O)c1ccc(C(C)(C)C)cc1)C(=O)N[C@@H](CO)C(=O)NCCOCCOCCOCCOCCOCCNC(=O)c1nc(NC(=O)CCNC(=O)c2cc(NC(=O)c3nc(NC(=O)CCCNC(=O)c4cc(NC(=O)c5nc(NC(=O)c6cc(NC(=O)c7cc(NC(=O)c8nccn8C)cn7C)cn6C)cn5C)cn4C)cn3C)cn2C)cn1C` show?
Solution: > 500 nM

Problem: Bench note: what EC50 did `CCN(CC)CCCC[C@H](NC(=O)[C@H](CC(C)C)NC(=O)[C@H](C)NC(=O)[C@H](Cc1ccccc1)NC(=O)c1ccc(C(C)(C)C)cc1)C(=O)N[C@@H](CO)C(=O)NCCOCCOCCNC(=O)c1cc(NC(=O)c2nc(NC(=O)c3cc(NC(=O)[C@@H](N)CCNC(=O)c4nc(NC(=O)c5cc(NC(=O)c6cc(NC(=O)c7nccn7C)cn6C)cn5C)cn4C)cn3C)cn2C)cn1C` show?
Solution: > 500 nM

Problem: Bench note: what EC50 did `CCN(CC)CCCC[C@H](NC(=O)[C@H](CC(C)C)NC(=O)[C@H](C)NC(=O)[C@H](Cc1ccccc1)NC(=O)c1ccc(C(C)(C)C)cc1)C(=O)N[C@@H](CO)C(=O)Nc1ccc(C#CC#CCNC(=O)CCNC(=O)c2nc(NC(=O)c3cc(NC(=O)CCNC(=O)c4nc(NC(=O)CCCNC(=O)c5cc(NC(=O)c6nc(NC(=O)CCNC(=O)c7cc(NC(=O)c8nccn8C)cn7C)cn6C)cn5C)cn4C)cn3C)cn2C)cc1` show?
Solution: < 100 nM

Problem: Bench note: what EC50 did `CCN(CC)CCCC[C@H](NC(=O)CNC(=O)CNC(=O)CNC(=O)c1ccc(C(C)(C)C)cc1)C(=O)N[C@@H](CO)C(=O)NCCOCCOCCOCCOCCOCCNC(=O)CCNC(=O)c1nc(NC(=O)c2cc(NC(=O)CCNC(=O)c3nc(NC(=O)CCCNC(=O)c4cc(NC(=O)c5nc(NC(=O)CCNC(=O)c6cc(NC(=O)c7nccn7C)cn6C)cn5C)cn4C)cn3C)cn2C)cn1C` show?
Solution: < 100 nM

Problem: Bench note: what EC50 did `CCN(CC)CCCC[C@H](NC(=O)[C@H](CC(C)C)NC(=O)[C@H](C)NC(=O)[C@H](Cc1ccccc1)NC(=O)c1ccc(C(C)(C)C)cc1)C(=O)N[C@@H](CO)C(=O)NCCOCCOCCOCCNC(=O)CCNC(=O)c1nc(NC(=O)c2cc(NC(=O)CCNC(=O)c3nc(NC(=O)CCCNC(=O)c4cc(NC(=O)c5nc(NC(=O)CCNC(=O)c6cc(NC(=O)c7nccn7C)cn6C)cn5C)cn4C)cn3C)cn2C)cn1C` show?
Solution: < 100 nM

Problem: Bench note: what EC50 did `CCN(CC)CCCC[C@H](NC(=O)[C@H](CC(C)C)NC(=O)[C@H](C)NC(=O)[C@H](Cc1ccccc1)NC(=O)c1ccc(C(C)(C)C)cc1)C(=O)N[C@@H](CO)C(=O)N1CCC(C#CC#CC2CCN(CCOCCNC(=O)CCNC(=O)c3nc(NC(=O)c4cc(NC(=O)CCNC(=O)c5nc(NC(=O)CCCNC(=O)c6cc(NC(=O)c7nc(NC(=O)CCNC(=O)c8cc(NC(=O)c9nccn9C)cn8C)cn7C)cn6C)cn5C)cn4C)cn3C)CC2)CC1` show?
Solution: < 100 nM

Problem: Bench note: what EC50 did `CCN(CC)CCCC[C@H](NC(=O)[C@H](CC(C)C)NC(=O)[C@H](C)NC(=O)[C@H](Cc1ccccc1)NC(=O)c1ccc(C(C)(C)C)cc1)C(=O)N[C@@H](CO)C(=O)NCCOCCOCCOCCOCCOCCOCCOCCOCCOCCOCCNC(=O)CCNC(=O)c1nc(NC(=O)c2cc(NC(=O)CCNC(=O)c3nc(NC(=O)CCCNC(=O)c4cc(NC(=O)c5nc(NC(=O)CCNC(=O)c6cc(NC(=O)c7nccn7C)cn6C)cn5C)cn4C)cn3C)cn2C)cn1C` show?
Solution: 100 to 500 nM

Problem: Bench note: what EC50 did CC(C)CN(CCCC[C@H](NC(=O)COCCOCCNC(=O)c1ccc(C(C)(C)C)cc1)C(=O)N[C@@H](CO)C(=O)NCCOCCOCCOCCOCCOCCNC(=O)CCNC(=O)c1nc(NC(=O)c2cc(NC(=O)CCNC(=O)c3nc(NC(=O)CCCNC(=O)c4cc(NC(=O)c5nc(NC(=O)CCNC(=O)c6cc(NC(=O)c7nccn7C)cn6C)cn5C)cn4C)cn3C)cn2C)cn1C)C1CC2CCC1C2 (stereo partly shown) show?
Solution: < 100 nM

Problem: Bench note: what EC50 did `CCN(CC)CCCC[C@H](NC(=O)[C@H](CC(C)C)NC(=O)[C@H](C)NC(=O)[C@H](Cc1ccccc1)NC(=O)c1ccc(C(C)(C)C)cc1)C(=O)N[C@@H](CO)C(=O)N1CCC(C#CC#CC2CCN(CCOCCOCCOCCNC(=O)CCNC(=O)c3nc(NC(=O)c4cc(NC(=O)CCNC(=O)c5nc(NC(=O)CCCNC(=O)c6cc(NC(=O)c7nc(NC(=O)CCNC(=O)c8cc(NC(=O)c9nccn9C)cn8C)cn7C)cn6C)cn5C)cn4C)cn3C)CC2)CC1` show?
Solution: < 100 nM
